Data origin, for the record: ChEMBL document CHEMBL1157592

# System: Candida albicans
# assay-details: Antimicrobial activity against Candida albicans ATCC 90029 after 48 hrs by broth microdilution method
# Type: functional
# experimental-setup: ATCC 90029, 48 h
Square brackets hold non-standard residues; d marks the D form. Peptide text beside a SMILES is read from it. Nphe = O=C(O)CNCc1ccccc1; Nlys = NCCCCNCC(=O)O
endpoint-label: MIC (µM)

(I) NCCCCN1CC(=O)N(CCOCc2ccccc2)CC(=O)N(CCOCc2ccccc2)CC(=O)N(CCCCN)CC(=O)N(CCOCc2ccccc2)CC(=O)N(CCOCc2ccccc2)CC1=O
(II) NCCCCN1CC(=O)N(Cc2ccccc2)CC(=O)N(CCCCN)CC(=O)N(CCCCN)CC(=O)N(Cc2ccccc2)CC(=O)N(CCCCN)CC1=O.O=C(O)C(F)(F)F.O=C(O)C(F)(F)F.O=C(O)C(F)(F)F.O=C(O)C(F)(F)F (cyclo([Nlys][Nlys][Nphe][Nlys][Nlys][Nphe]))
## Task Problem: Given the entries I and II , determine which has the lower reported MIC. When you have decided, please share the label of that item.
## Result II

* * *

# Tested on: Candida albicans
# assay-details: Antimicrobial activity against Candida albicans ATCC 90029 after 48 hrs by broth microdilution method
# Assay type: functional
# experimental-setup: ATCC 90029, 48 h
Square brackets hold non-standard residues; d marks the D form. Peptide text beside a SMILES is read from it. Nphe = O=C(O)CNCc1ccccc1; Nlys = NCCCCNCC(=O)O
endpoint-label: MIC (µM)

1. NCCCCN1CC(=O)N(Cc2ccccc2)CC(=O)N(Cc2ccccc2)CC(=O)N(CCCCN)CC(=O)N(Cc2ccccc2)CC(=O)N(Cc2ccccc2)CC1=O (cyclo([Nlys][Nphe][Nphe][Nlys][Nphe][Nphe])); 465

(A) NCCCCN1CC(=O)N(CCCCN)CC(=O)N(CCCCN)CC(=O)N(CCCCN)CC(=O)N(CCCCN)CC(=O)N(CCCCN)CC1=O.O=C(O)C(F)(F)F.O=C(O)C(F)(F)F.O=C(O)C(F)(F)F.O=C(O)C(F)(F)F.O=C(O)C(F)(F)F.O=C(O)C(F)(F)F
(B) NCCCCN(CC(=O)N(CCOCc1ccccc1)CC(=O)N(CCOCc1ccccc1)CC(=O)N(CCCCN)CC(=O)N(CCOCc1ccccc1)CC(=O)O)C(=O)CNCCOCc1ccccc1
## Task Kindly identify which of A and B has the larger recorded MIC value. When you have decided, please share the label of that item.
## Result B
(B: 360 µM, A: 10 µM)

* * *

# Test system: Candida albicans
# assay-details: Antimicrobial activity against Candida albicans L21 after 48 hrs by broth microdilution method
# Format: functional
# experimental-setup: L21, 48 h
Square brackets hold non-standard residues; d marks the D form. Peptide text beside a SMILES is read from it. Nphe = O=C(O)CNCc1ccccc1; Nlys = NCCCCNCC(=O)O
endpoint-label: MIC (µM)

Please review the following examples before continuing.
1. NCCCCN(CC(=O)N(CCOCc1ccccc1)CC(=O)N(CCOCc1ccccc1)CC(=O)N(CCCCN)CC(=O)N(CCOCc1ccccc1)CC(=O)O)C(=O)CNCCOCc1ccccc1; 360
2. NCCCCN1CC(=O)N(CCCCN)CC(=O)N(CCCCN)CC(=O)N(CCCCN)CC(=O)N(CCCCN)CC(=O)N(CCCCN)CC1=O.O=C(O)C(F)(F)F.O=C(O)C(F)(F)F.O=C(O)C(F)(F)F.O=C(O)C(F)(F)F.O=C(O)C(F)(F)F.O=C(O)C(F)(F)F; 5
3. NCCCCN1CC(=O)N(CCOCc2ccccc2)CC(=O)N(CCCCN)CC(=O)N(CCOCc2ccccc2)CC(=O)N(CCCCN)CC(=O)N(CCOCc2ccccc2)CC1=O.O=C(O)C(F)(F)F.O=C(O)C(F)(F)F.O=C(O)C(F)(F)F; 184
4. NCCCCN1CC(=O)N(Cc2ccccc2)CC(=O)N(Cc2ccccc2)CC(=O)N(CCCCN)CC(=O)N(Cc2ccccc2)CC(=O)N(Cc2ccccc2)CC1=O (cyclo([Nlys][Nphe][Nphe][Nlys][Nphe][Nphe])); 232

(1) NCCCCNCC(=O)N(CCCCN)CC(=O)N(CCCCN)CC(=O)N(CCCCN)CC(=O)N(CCCCN)CC(=O)N(CCCCN)CC(=O)O
(2) NCCCCN1CC(=O)N(CCOCc2ccccc2)CC(=O)N(CCOCc2ccccc2)CC(=O)N(CCCCN)CC(=O)N(CCOCc2ccccc2)CC(=O)N(CCOCc2ccccc2)CC1=O
## Task Kindly identify which of 1 and 2 has the larger recorded MIC value. When you have decided, please share the label of that item.
## Result 1

* * *

# Tested on: Candida albicans
# assay-details: Antimicrobial activity against Candida albicans L21 after 48 hrs by broth microdilution method
# Assay type: functional
# experimental-setup: L21, 48 h
Square brackets hold non-standard residues; d marks the D form. Peptide text beside a SMILES is read from it. Nphe = O=C(O)CNCc1ccccc1; Nlys = NCCCCNCC(=O)O
endpoint-label: MIC (µM)
Report the figure in µM without appending any unit label.

The recorded MIC with Candida albicans for NCCCCN1CC(=O)N(Cc2ccccc2)CC(=O)N(CCCCN)CC(=O)N(CCCCN)CC(=O)N(Cc2ccccc2)CC(=O)N(CCCCN)CC1=O.O=C(O)C(F)(F)F.O=C(O)C(F)(F)F.O=C(O)C(F)(F)F.O=C(O)C(F)(F)F (cyclo([Nlys][Nlys][Nphe][Nlys][Nlys][Nphe])) was 12

* * *

Examples of molecules with documented MIC follow.
# System: Candida albicans
# assay-details: Antimicrobial activity against Candida albicans ATCC 90029 after 48 hrs by broth microdilution method
# Type: functional
# experimental-setup: ATCC 90029, 48 h
Square brackets hold non-standard residues; d marks the D form. Peptide text beside a SMILES is read from it. Nphe = O=C(O)CNCc1ccccc1; Nlys = NCCCCNCC(=O)O

The recorded MIC with Candida albicans for `NCCCCN1CC(=O)N(CCOCc2ccccc2)CC(=O)N(CCCCN)CC(=O)N(CCOCc2ccccc2)CC(=O)N(CCCCN)CC(=O)N(CCOCc2ccccc2)CC1=O.O=C(O)C(F)(F)F.O=C(O)C(F)(F)F.O=C(O)C(F)(F)F` was 184 µM

The recorded MIC with Candida albicans for NCCCCN(CC(=O)N(CC(=O)N(CC(=O)N(CCCCN)CC(=O)N(CC(=O)O)Cc1ccccc1)Cc1ccccc1)Cc1ccccc1)C(=O)CNCc1ccccc1 (H-[Nphe][Nlys][Nphe][Nphe][Nlys][Nphe]-OH) was > 1000 µM

The recorded MIC with Candida albicans for `O=C1CN(CCOCc2ccccc2)C(=O)CN(CCOCc2ccccc2)C(=O)CN(CCOCc2ccccc2)C(=O)CN(CCOCc2ccccc2)C(=O)CN(CCOCc2ccccc2)C(=O)CN1CCOCc1ccccc1` was > 1000 µM

The recorded MIC with Candida albicans for `NCCCCN(CC(=O)O)C(=O)CN(CCCCN)C(=O)CN(Cc1ccccc1)C(=O)CN(CCCCN)C(=O)CN(CCCCN)C(=O)CNCc1ccccc1` was > 1000 µM

* * *

# Test system: Candida albicans
# assay-details: Antimicrobial activity against Candida albicans L21 after 48 hrs by broth microdilution method
# Assay type: functional
# experimental-setup: L21, 48 h
Square brackets hold non-standard residues; d marks the D form. Peptide text beside a SMILES is read from it. Nphe = O=C(O)CNCc1ccccc1; Nlys = NCCCCNCC(=O)O
endpoint-label: MIC

Field MIC (entry NCCCCN(CC(=O)N(CC(=O)N(CC(=O)N(CCCCN)CC(=O)N(CC(=O)O)Cc1ccccc1)Cc1ccccc1)Cc1ccccc1)C(=O)CNCc1ccccc1 (H-[Nphe][Nlys][Nphe][Nphe][Nlys][Nphe]-OH) ) reads > 1000 µM

Field MIC (entry `O=C1CN(CCOCc2ccccc2)C(=O)CN(CCOCc2ccccc2)C(=O)CN(CCOCc2ccccc2)C(=O)CN(CCOCc2ccccc2)C(=O)CN(CCOCc2ccccc2)C(=O)CN1CCOCc1ccccc1` ) reads > 1000 µM

Field MIC (entry `NCCCCN(CC(=O)O)C(=O)CN(CCCCN)C(=O)CN(Cc1ccccc1)C(=O)CN(CCCCN)C(=O)CN(CCCCN)C(=O)CNCc1ccccc1` ) reads > 1000 µM
